Please go through the items and note down their koff.
Target: T1, Recombinant soluble extracellular domain of cynomolgus monkey MerTK (cynomolgus monkey, UniProt Q12866 21-505 (human entry))
T1 construct: SPR analyte; also called cMerTK; Cynomolgus MerTK
T1 chain: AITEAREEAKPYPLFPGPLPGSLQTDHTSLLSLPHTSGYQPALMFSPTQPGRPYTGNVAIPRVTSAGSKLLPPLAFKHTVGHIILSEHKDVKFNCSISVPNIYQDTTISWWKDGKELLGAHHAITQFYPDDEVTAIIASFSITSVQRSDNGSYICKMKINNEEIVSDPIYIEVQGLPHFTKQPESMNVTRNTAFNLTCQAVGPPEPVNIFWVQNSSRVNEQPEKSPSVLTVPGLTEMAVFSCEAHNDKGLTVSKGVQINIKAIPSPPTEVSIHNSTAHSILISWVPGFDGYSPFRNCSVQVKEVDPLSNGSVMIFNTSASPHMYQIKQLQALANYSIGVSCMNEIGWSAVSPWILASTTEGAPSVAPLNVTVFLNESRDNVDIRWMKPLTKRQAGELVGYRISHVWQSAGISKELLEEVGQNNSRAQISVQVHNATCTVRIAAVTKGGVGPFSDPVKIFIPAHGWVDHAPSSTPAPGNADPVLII
Experiment: SPR, mAb captured, soluble MerTK ECD as analyte, 37 C

IN: # koff lookup, item HuMAb 22I16 (antibody, human IgG1, kappa, V domains shown, Human anti-hMerTK mAb, Bin 1; also called 22116) VH: EVQLVESGGGLVQPGGSLRLSCAASGFTFSSYSMNWVRQAPGKGLEWVSYIISGSDTIFYADSVKGRFTISRDNAKNSLYLQMNSLRDEDTAVYYCARDETVVRGVINYFDYWGQGTLVTVSS VL: AIQLTQSPSSLSASVGDRVTITCRSSQGISSALAWYQQKPGKAPKLLIYDASSLESGVPSRFSGSGSGTDFTLTISSLQPEDFATYYCQQFISYPTFGQGTRLEIKR
OUT: 0.00126 s⁻¹

IN: Please give the measured koff for this binder: Humanized mAb 4M60 (antibody, human IgG1, kappa, V domains shown, Humanized variant of moMAb 4E9, Bin 2) VH: QVQLVQSGSELKKPGASVKVSCKASGNTFTTYGMSWVRQAPGQGLEWMGWINNYSGVSTYADDFKGRFVFSLDTSVSTAYLQISSLKAEDTAVYYCARDYYGSGGWVFDYWGQGTTVTVSS VL: DVVMTQSPLSLPVTLGQPASISCKSSQSLLDSEGKTYLNWLQQRPGQSPRRLMYLVSKLDSGVPDRFSGSGSGTDFTLKISRVEAEDVGVYYCWQGTHFPRTFGGGTKVEIKR
OUT: 0.00137 s⁻¹

IN: Find the recorded koff belonging to HuMAb 8N42 (antibody, V domains shown, Human anti-hMerTK mAb, Bin 1) VH: QVQLQQWGAGLLKPSETLSLTCAVYGGSFSIYYWSWIRQPPGKGLELIGEINDEGNTNYNPSLKSRVTISVDTSKNQFSLKLSSVTAADTAVYYCARGGTGDIHAFDIWGQGTMVTVSS VL: DIQMTQSPSSLSASVGDRVTITCRASQGISKWLAWYQQKPEKAPKSLIYAASSLQSGVPSRFSGSGSGTDFTLTISSLQPEDFATYYCQQYNSYPWTFGQGTKVEIKR and report it.
OUT: 0.0014 s⁻¹
